- Test system: Entamoeba histolytica
- test.name: Inhibition of Entamoeba histolytica chitinase using 20 uM 4-methylumbelliferyl-N,N',N''-beta-chitotrioside as substrate at 10 uM after 10 mins by microplate reader analysis
Calls of active or inactive are those of the source. No cut-off for these calls is given here.
endpoint.name: inhibition

Please review the entries below; each comes with its answer.
molecule=O=C(Nc1ccc(Oc2ccc(Cl)cc2)cc1)c1cc(I)cc(I)c1O result=inactive
molecule=COc1c(I)cc(I)cc1C(=O)Nc1ccc(Oc2ccc(Cl)cc2)cc1 result=inactive
molecule="O=C(Nc1ccc(Oc2ccc(Cl)cc2)c(Cl)c1)c1cc(I)cc(I)c1O [RAFOXANIDE]" result=inactive
molecule=O=C(Nc1ccc(-c2ccc(Cl)cc2)cc1)c1cc(I)cc(I)c1O result=inactive

Consider the additional molecule presented here.
Task: Field request: inhibition | item: `O=C(Nc1ccc(-c2ccccc2)cc1)c1cc(I)cc(I)c1O`
Result: inactive

Origin of the recorded values: ChEMBL document CHEMBL3297707
